# measurement-protocol: Metabolic stability in mouse liver microsomes assessed as parent compound remaining at 1 uM preincubated for 5 mins followed by NADPH addition after 30 mins by LC-MS/MS analysis
# Type: ADME, Microsome
# study-conditions: read-out: Stability
measured-metric: remaining at 0.5 h, 1 µM (%)
Numbers only, in %.

Reference set, count: 6
O=C(O)c1ccc(-n2cc(C(=O)c3c(Cl)cccc3Cl)c3cc(F)ccc32)cc1	82
O=C(O)c1ccc(-n2cc(C(=O)c3c(Cl)cccc3C(F)(F)F)c3c(F)cccc32)cc1	96
O=C(O)c1ccc(-n2cc(C(=O)c3c(Cl)cccc3Cl)c3ccccc32)cc1O	77
O=C(O)c1ccc(-n2cc(C(=O)c3c(Cl)cccc3C(F)(F)F)c3ccccc32)cc1	100
O=C(O)c1ccc(-n2cc(C(=O)c3c(Cl)cccc3C(F)(F)F)c3c(F)cccc32)c(F)c1	78
O=C(O)c1ccc(-n2cc(C(=O)c3c(Cl)cccc3Cl)c3ccncc32)cc1	100

Please state remaining at 0.5 h, 1 µM for every molecule in the list that follows.
1. O=C(O)c1ccc(-n2cc(C(=O)c3c(Cl)cccc3Cl)c3ccccc32)cc1F
2. O=C(O)c1ccc(-n2cc(C(=O)c3c(Cl)cccc3C(F)(F)F)c3cccnc32)cc1
3. Cc1cccc(Cl)c1C(=O)c1cn(-c2ccc(C(=O)O)cc2F)c2ncccc12
4. O=C(O)c1ccc(-n2cc(C(=O)c3c(F)cccc3F)c3ccccc32)cc1

[92, 84, 93, 94]

---

# measurement-protocol: AUC (0 to 24 hrs) in Balb/c mouse at 10 mg/kg, po
# Format: ADME, organism-based
# Parameters: time < 24 hr, dose 10 mg/kg, route oral
# study-conditions: in vivo
measured-metric: AUC(0-t) at 24 h (µM·h)
One number for each entry, in µM·h.

Using the record for O=C([O-])c1ccc(-n2cc(C(=O)c3c(Cl)cccc3Cl)c3cccc(F)c32)cc1.[Na+] , report its AUC(0-t) at 24 h.
12.6

---

# measurement-protocol: Metabolic stability in simulated intestinal fluid assessed as compound remaining after 60 mins
# Assay type: ADME
# study-conditions: read-out: Stability
measured-metric: remaining at 1 h

Need remaining at 1 h, item O=C(O)c1ccc(-n2cc(C(=O)c3c(Cl)cccc3Cl)c3cccc(F)c32)cc1
100%

---

# measurement-protocol: AUC (0 to infinity) in Balb/c mouse at 3 mg/kg, iv
# Type: ADME, organism-based
# Design: dose 3 mg/kg, route intravenous, time infinity
# study-conditions: in vivo
measured-metric: AUC(0-inf) (µM·h)
Answers are plain numbers, in µM·h.

Any idea what its AUC(0-inf) is? The molecule is O=C([O-])c1ccc(-n2cc(C(=O)c3c(Cl)cccc3Cl)c3cccc(F)c32)cc1.[Na+]
4.6

---

# measurement-protocol: Metabolic stability in simulated gastric fluid assessed as compound remaining after 15 mins
# Type: ADME
# study-conditions: read-out: Stability
measured-metric: remaining at […] (%)
Numbers only, in %.

Need remaining at […], item O=C(O)c1ccc(-n2cc(C(=O)c3c(Cl)cccc3Cl)c3cccc(F)c32)cc1
84

---

# measurement-protocol: Tmax in Sprague-Dawley rat at 10 mg/kg, po via gavage measured up to 24 hrs by LC-MS/MS analysis
# Format: ADME, organism-based
# study-conditions: in vivo
measured-metric: Tmax (min)
Numbers only, in min.

Form field: reported Tmax of O=C([O-])c1ccc(-n2cc(C(=O)c3c(Cl)cccc3Cl)c3cccc(F)c32)cc1.[Na+]
30

---

# assay-target: Cytochrome P450 2C9 (Homo sapiens, UniProt P11712)
# Sequence (P11712 whole entry): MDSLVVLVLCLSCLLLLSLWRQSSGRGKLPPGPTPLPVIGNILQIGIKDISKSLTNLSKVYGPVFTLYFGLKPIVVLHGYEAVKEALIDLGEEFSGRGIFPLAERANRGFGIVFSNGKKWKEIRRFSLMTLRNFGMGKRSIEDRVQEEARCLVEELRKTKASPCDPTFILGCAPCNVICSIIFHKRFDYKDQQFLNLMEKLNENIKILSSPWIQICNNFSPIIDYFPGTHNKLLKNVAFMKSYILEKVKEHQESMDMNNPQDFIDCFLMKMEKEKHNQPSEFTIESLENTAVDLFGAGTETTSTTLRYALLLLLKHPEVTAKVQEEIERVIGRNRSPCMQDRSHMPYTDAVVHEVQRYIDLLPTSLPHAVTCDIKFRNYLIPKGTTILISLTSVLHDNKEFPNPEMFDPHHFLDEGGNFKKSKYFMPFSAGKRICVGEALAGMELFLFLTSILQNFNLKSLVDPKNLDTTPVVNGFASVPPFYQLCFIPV
Task for the reader: assign each of the following compounds its reported IC50.
One number for each entry, in µM.

Answered examples (5):
Cc1cccc(Cl)c1C(=O)c1cn(-c2ccc(C(=O)O)cc2)c2c(F)cccc12	32
O=C(O)c1ccc(-n2cc(C(=O)c3c(Cl)cccc3Cl)c3c(F)cccc32)c(F)c1	8.01
O=C(O)c1ccc(-n2cc(C(=O)c3c(Cl)cccc3C(F)(F)F)c3c(F)cccc32)c(F)c1	20.3
O=C(O)c1ccc(-n2cc(C(=O)c3c(Cl)cccc3C(F)(F)F)c3cccnc32)c(F)c1	17.2
O=C(O)c1ccc(-n2cc(C(=O)c3c(F)cccc3Cl)c3ccccc32)cc1	9

// for each compound below, give its IC50
1. O=C(O)c1ccc(-n2cc(C(=O)c3c(Cl)cccc3C(F)(F)F)c3ccccc32)cc1
2. O=C(O)c1ccc(-n2cc(C(=O)c3c(Cl)cccc3Cl)c3ccccc32)cc1
3. CCS(=O)(=O)c1ccc(CC(=O)Nc2cc(Cl)c(-c3ccccc3OC(F)(F)F)c(Cl)c2)cc1
4. Cc1cccc(Cl)c1C(=O)c1cn(-c2ccc(C(=O)O)cc2)c2ccccc12
5. O=C(O)c1ccc(-n2cc(C(=O)c3c(Cl)cccc3C(F)(F)F)c3c(F)cccc32)cc1

16
3.8
2.1
13.5
22.6

---

# measurement-protocol: Tmax in Balb/c mouse at 10 mg/kg, po
# Assay type: ADME, organism-based
# study-conditions: in vivo
measured-metric: Tmax (min)
Give bare numbers, in min.

# Tmax lookup, item O=C([O-])c1ccc(-n2cc(C(=O)c3c(Cl)cccc3Cl)c3cccc(F)c32)cc1.[Na+]
30

---

Kindly supply the reported Tmax values for the records listed here.
# measurement-protocol: Tmax in mouse at 10 mg/kg, po
# Format: ADME, organism-based
# study-conditions: in vivo
One number for each entry, in min.

Worked examples, 4 molecules total:
O=C(O)c1ccc(-n2cc(C(=O)c3c(Cl)cccc3C(F)(F)F)c3c(F)cccc32)c(F)c1	30
O=C(O)c1ccc(-n2cc(C(=O)c3c(Cl)cccc3Cl)c3ccccc32)c(F)c1	30
O=C(O)c1ccc(-n2cc(C(=O)c3c(Cl)cccc3C(F)(F)F)c3cccnc32)c(F)c1	30
Cc1cccc(Cl)c1C(=O)c1cn(-c2ccc(C(=O)O)cc2)c2ccccc12	15

Give measured Tmax for every item shown.
1. CCS(=O)(=O)c1ccc(CC(=O)Nc2cc(Cl)c(-c3ccccc3OC(F)(F)F)c(Cl)c2)cc1
2. O=C(O)c1ccc(-n2cc(C(=O)c3c(Cl)cccc3Cl)c3cccc(F)c32)cc1

1. 120
2. 30

---

Can you tell me half-life for the items I'm about to list?
# measurement-protocol: Half life in Balb/c mouse at 3 mg/kg, iv administered as single dose by LC-MS/MS analysis
# Assay type: ADME, organism-based
# study-conditions: in vivo
Numbers only, in h.

O=C(O)c1ccc(-c2nn(C(=O)c3c(Cl)cccc3Cl)c3ccccc23)cc1	1.12
O=C(O)c1ccc(-n2cc(C(=O)c3c(Cl)cccc3Cl)c3ccccc32)cc1	4.6

Next item in the queue.
For the molecule shown here, O=C(O)c1ccc(-n2nc(C(=O)c3c(Cl)cccc3Cl)c3ccccc32)cc1 , give the reported half-life.
1.4

---

# measurement-protocol: Metabolic stability in rat hepatocytes assessed as parent compound remaining after 30 mins
# Format: ADME, cell-based, Hepatocyte
# study-conditions: read-out: Stability
measured-metric: remaining at 0.5 h (%)
Answers are plain numbers, in %.

Query (compound): O=C(O)c1ccc(-n2nc(C(=O)c3c(Cl)cccc3Cl)c3ccccc32)cc1 ; field requested: remaining at 0.5 h
17

---

# measurement-protocol: Solubility of the compound at pH 7.4
# study-conditions: buffer
Provide the reported solubility of each item.
Give bare numbers, in µM.

As a guide, the following entries are already answered.
Cc1cccc(Cl)c1C(=O)c1cn(-c2ccc(C(=O)O)cc2F)c2ncccc12	1960
O=C(O)c1ccc(-n2cc(C(=O)c3c(Cl)cccc3Cl)c3ccccc32)cc1	19
O=C(O)c1ccc(-n2cc(C(=O)c3c(Cl)cccc3Cl)c3cccnc32)cc1	407

Next compound, please.
Which measured solubility value corresponds to O=C(O)c1ccc(-n2cc(C(=O)c3c(Cl)cccc3C(F)(F)F)c3ccccc32)cc1 ?
1470

---

# measurement-protocol: Metabolic stability in human liver microsomes assessed as parent compound remaining at 1 uM preincubated for 5 mins followed by NADPH addition after 30 mins by LC-MS/MS analysis
# Type: ADME, Microsome
# study-conditions: read-out: Stability
measured-metric: remaining at 0.5 h, 1 µM (%)
Answers are plain numbers, in %.

Examples with their reported remaining at 0.5 h, 1 µM follow.
O=C(O)c1ccc(-n2cc(C(=O)c3c(F)cccc3F)c3ccccc32)cc1	92
Cc1cccc(Cl)c1C(=O)c1cn(-c2ccc(C(=O)O)cc2F)c2ncccc12	88
O=C(O)c1ccc(-n2cc(C(=O)c3c(Cl)cccc3Cl)c3ccc(F)cc32)cc1	91
O=C(O)c1ccc(-n2cc(C(=O)c3c(Cl)cccc3Cl)c3c(F)cccc32)c(F)c1	88
O=C(O)c1ccc(-n2cc(C(=O)c3c(Cl)cccc3Cl)c3cccc(F)c32)cc1	88

Kindly consider the entry below.
What remaining at 0.5 h, 1 µM value was documented for this molecule, O=C(O)c1ccc(-n2cc(C(=O)c3c(Cl)cccc3C(F)(F)F)c3cccc(F)c32)cc1 ?
88
